Test system: Radical scavenging activity
Assay details: Antioxidant activity assessed as DPPH free radical scavenging activity by measuring reduction in DPPH absorbance by ELISA relative to untreated control
Type: functional
Set-up: concentration or dose not given beside the values
A collection of compounds and their measured Activity
Record the result as a number with its unit.

- O=C1/C(=N/Nc2cccc(Cl)c2)CCCc2ccccc21: 84.1%

// query Give its Activity value. Item: COc1ccc(N/N=C2\CCCc3ccccc3C2=O)cc1
// result 83.9%

// query Okay, and O=C1/C(=N/Nc2cccc([N+](=O)[O-])c2)CCCc2ccccc21 ?
// result 81.1%

// query Okay, and Cc1ccc(N/N=C2\CCCc3ccccc3C2=O)cc1 ?
// result 80.1%

// query Okay, and Cc1cccc(N/N=C2\CCCc3ccccc3C2=O)c1 ?
// result 83.1%
